Recorded values, source patent US20230391760A1.

This listing pairs compounds with measured pEC50.
# TESTED_TARGET: GLP-1 Receptor (Homo sapiens)
# PROTOCOL_DETAILS: GLP-1R agonist cAMP stimulation assay (HEK293/GLP1R/CRE-LUC cells, cAMP dynamic 2 Kit)
# RUN_PARAMETERS: HEK293/CRE-Luc cell line stably expressing the GLP-1 Receptor, 30 min at 37° C.
Kindly note that pEC50 refers to -log10 of the concentration in mol/L and answer with the value alone.

Value of measured pEC50 for the entry Fc1cc(Cl)ccc1COc1cc(C2CCN(Cc3nc4cc(-c5nnc(C(F)(F)F)[nH]5)nnc4n3C[C@@H]3CCO3)CC2)ccc1F [Compound 520a] : 9.47

Value of measured pEC50 for the entry CN1CCCC(C(=O)Nc2ccc3c(c2)nc(CN2CCC(c4cccc(OCc5ccc(Cl)cc5F)n4)CC2)n3C[C@@H]2CCO2)C1 (stereo partly drawn) [Compound 202a] : 8.22

Value of measured pEC50 for the entry Cc1cncc(C)c1C(=O)Nc1ccc2c(c1)nc(CN1CCC(c3cccc(OCc4ccc(Cl)cc4F)n3)CC1)n2C[C@@H]1CCO1 [Compound 191a] : 8.06

* * *

# TESTED_TARGET: UniProtKB P43220
# PROTOCOL_DETAILS: GLP-1R agonist cAMP stimulation assay (HEK293/GLP1R/CRE-LUC cells, cAMP dynamic 2 Kit)
# Assay type: cell-based
# RUN_PARAMETERS: HEK293/CRE-Luc cell line stably expressing the GLP-1 Receptor, 30 min at 37° C.
READOUT_KIND: pEC50
Kindly note that pEC50 refers to -log10 of the concentration in mol/L and answer with the value alone.

Record excerpt, results attached:
Value of measured pEC50 for the entry CC1(c2ccc(Cl)cc2F)Oc2cccc(C3CCN(Cc4nc5cc(C(=O)O)ccc5n4C[C@@H]4CCO4)CC3)c2O1 (stereo partly drawn) [Compound 161a] : 9.29

Value of measured pEC50 for the entry O=C(Nc1ccc2c(c1)nc(CN1CCC(c3cccc(OCc4ccc(Cl)cc4F)n3)CC1)n2C[C@@H]1CCO1)c1ccc(C2CC2)nc1 [Compound 176a] : 8.07

// below: pEC50 requested for another compound
Value of measured pEC50 for the entry N#Cc1ccc(COc2cccc(C3=CCN(Cc4nc5cc(-c6nnc(C(F)(F)F)[nH]6)cnc5n4C[C@@H]4CCO4)CC3)c2)c(F)c1 [Compound 317a] : 9.96

* * *

# TESTED_TARGET: UniProtKB P43220
# PROTOCOL_DETAILS: GLP-1R agonist cAMP stimulation assay (HEK293/GLP1R/CRE-LUC cells, cAMP dynamic 2 Kit)
# RUN_PARAMETERS: HEK293/CRE-Luc cell line stably expressing the GLP-1 Receptor, 30 min at 37° C.
This listing pairs compounds with measured log10(EC50).
Remember, log10 of EC50, in nM.

Record excerpt, results attached:
Value of measured log10(EC50) for the entry C[C@]1(c2ccc(Cl)cc2F)Oc2cccc(C3CCN(Cc4nc5cc(-c6noc(=O)[nH]6)cnc5n4CC4(C#N)CC4)CC3)c2O1 [Compound 334a] : -0.60

Value of measured log10(EC50) for the entry O=c1[nH]c(-c2cc3nc(CN4CCN(c5ccc(F)c(OCc6ccc(Cl)cc6F)c5)CC4)n(C[C@@H]4CCO4)c3cn2)no1 [Compound 439a] : 0.36

Value of measured log10(EC50) for the entry CC1(c2ccc(Cl)cn2)Oc2cccc(C3CCN(Cc4nc5cc(-c6nnc(C7CC7)[nH]6)cnc5n4C[C@@H]4CCO4)CC3)c2O1 (stereo partly drawn) [Compound 268a] : 0.62

Value of measured log10(EC50) for the entry CC1(c2ccc(Cl)cn2)Oc2cccc(C3CCN(Cc4nc5cc(-c6n[nH]c(C(F)(F)F)n6)cnc5n4C[C@@H]4CCO4)CC3)c2O1 (mixture of isomers) [Compound 333a] : -1.52

Value of measured log10(EC50) for the entry CCc1nnc(-c2cnc3c(c2)nc(CN2CCC(c4cccc5c4O[C@@](C)(c4ccc(Cl)cc4F)O5)CC2)n3C[C@@H]2CCO2)[nH]1 [Compound 352a] : -0.37

Further cases:
Value of measured log10(EC50) for the entry Fc1cc(Cl)ccc1COc1ncccc1C1CCN(Cc2nc3cc(-c4nnc(C(F)(F)F)[nH]4)ccc3n2C[C@@H]2CCO2)CC1 [Compound 393a] : -1.20

* * *

# TESTED_TARGET: GLP-1 Receptor (Homo sapiens, UniProt P43220)
# Sequence (P43220 24-463, species assumed): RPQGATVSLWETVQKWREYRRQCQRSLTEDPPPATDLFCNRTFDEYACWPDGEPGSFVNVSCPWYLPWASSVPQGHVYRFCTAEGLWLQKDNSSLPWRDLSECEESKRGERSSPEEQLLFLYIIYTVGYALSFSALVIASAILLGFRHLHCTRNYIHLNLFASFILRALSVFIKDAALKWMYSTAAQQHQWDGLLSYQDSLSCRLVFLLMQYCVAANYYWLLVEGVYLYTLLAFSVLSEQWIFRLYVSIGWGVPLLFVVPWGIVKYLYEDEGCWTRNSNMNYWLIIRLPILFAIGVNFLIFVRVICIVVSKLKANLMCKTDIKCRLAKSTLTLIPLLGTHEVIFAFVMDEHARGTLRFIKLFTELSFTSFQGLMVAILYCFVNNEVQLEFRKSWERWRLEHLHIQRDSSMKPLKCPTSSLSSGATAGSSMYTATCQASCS
# PROTOCOL_DETAILS: GLP-1R agonist cAMP stimulation assay (HEK293/GLP1R/CRE-LUC cells, cAMP dynamic 2 Kit)
# RUN_PARAMETERS: HEK293/CRE-Luc cell line stably expressing the GLP-1 Receptor, 30 min at 37° C.
This listing pairs compounds with measured pEC50.
Kindly note that pEC50 refers to -log10 of the concentration in mol/L and answer with the value alone.

Record excerpt, results attached:
Value of measured pEC50 for the entry Fc1cc(Cl)ccc1COc1nc(C2CCN(Cc3nc4cc(-c5nnc(C(F)(F)F)[nH]5)cnc4n3C[C@@H]3CCO3)CC2)ncc1F [Compound 504a] : 10.04

Value of measured pEC50 for the entry CC1(c2ccc(C#N)cc2F)Oc2cccc(C3CCN(Cc4nc5cc(-c6nnc(C(F)(F)F)[nH]6)cnc5n4C[C@@H]4CCO4)CC3)c2O1 (stereo partly drawn) [Compound 403a] : 10.70

// below: pEC50 requested for another compound
Value of measured pEC50 for the entry O=C(Nc1ccc2c(c1)nc(CN1CCC(c3cccc(OCc4ccc(Cl)cc4F)n3)CC1)n2C[C@@H]1CCO1)N1CCC(F)C1 (stereo partly drawn) [Compound 206a] : 9.11

* * *

This listing pairs molecules with measured EC50.
# TESTED_TARGET: GLP-1 Receptor (Homo sapiens, UniProt P43220)
# PROTOCOL_DETAILS: GLP-1R agonist cAMP stimulation assay (HEK293/GLP1R/CRE-LUC cells, cAMP dynamic 2 Kit)
# RUN_PARAMETERS: HEK293/CRE-Luc cell line stably expressing the GLP-1 Receptor, 30 min at 37° C.
I only need the number, in nM, no unit after it.

Value of measured EC50 for the entry Cc1ncc(-c2ccc3c(c2)nc(CN2CCC(c4cccc5c4OC(C)(c4ccc(Cl)cc4F)O5)CC2)n3C[C@@H]2CCO2)cn1 (stereo partly drawn) [Compound 237a] : 9.1

Value of measured EC50 for the entry Cc1nnc(-c2cc3nc(CN4CCC(c5cccc6c5OC[C@@H](c5ccc(Cl)cc5)O6)CC4)n(C[C@@H]4CCO4)c3cn2)[nH]1 [Compound 424a] : 0.13

Value of measured EC50 for the entry CC1(c2ccc(Cl)cn2)Oc2cccc(C3CCN(Cc4nc5cc(-c6nnn[nH]6)ncc5n4C[C@@H]4CCO4)CC3)c2O1 (stereo partly drawn) [Compound 450a] : 0.062

Further cases:
Value of measured EC50 for the entry O=C(O)c1ccc2c(c1)nc(CN1CCC(c3cccc(OCc4ccc(Cl)cc4F)n3)CC1)n2C[C@@H]1CCO1 [Compound 213a] : 0.83

Value of measured EC50 for the entry C[C@]1(c2ccc(Cl)cn2)Oc2cccc(C3CCN(Cc4nc5cc(-c6nnc(C(F)(F)F)[nH]6)nnc5n4C[C@H]4CCOC4)CC3)c2O1 [Compound 474a] : 1.5

* * *

# TESTED_TARGET: GLP-1 Receptor (Homo sapiens)
# PROTOCOL_DETAILS: GLP-1R agonist cAMP stimulation assay (HEK293/GLP1R/CRE-LUC cells, cAMP dynamic 2 Kit)
# RUN_PARAMETERS: HEK293/CRE-Luc cell line stably expressing the GLP-1 Receptor, 30 min at 37° C.
# Text: Activation of GLP-1 receptor is known to stimulate cyclic AMP (cAMP) production in cells which indicates primary coupling to the Gαs subunit of the G protein heterotrimeric complex. […] To optimize functional activity directed toward Gαs coupling, a HEK293/CRE-Luc cell line developed by HDB stably expressing the GLP-1 Receptor was used. […]
READOUT_KIND: pEC50
Kindly note that pEC50 refers to -log10 of the concentration in mol/L and answer with the value alone.

Value of measured pEC50 for the entry C[C@]1(c2ccc(Cl)cn2)Oc2cccc(C3CCN(Cc4nc5cc(-c6nnn[nH]6)cnc5n4C[C@@H]4CCO4)CC3)c2O1 [Compound 451a] : 9.68

Value of measured pEC50 for the entry Cc1nnc(-c2cnc3c(c2)nc(CN2CCC(c4cccc5c4OC(C)(c4ccc(Cl)cn4)O5)CC2)n3C[C@@H]2CCO2)[nH]1 (stereo partly drawn) [Compound 269a] : 8.70

Value of measured pEC50 for the entry C[C@]1(c2ccc(Cl)cc2F)Oc2cccc(C3CCN(Cc4nc5cc(-c6noc(=O)[nH]6)cnc5n4C[C@@H]4CCOC4)CC3)c2O1 [Compound 398a] : 8.37

Value of measured pEC50 for the entry O=c1[nH]c(-c2cc3nc(CN4CCC(c5cccc6c5OC[C@@H](c5ccc(Cl)cc5)O6)CC4)n(C[C@@H]4CCO4)c3cn2)no1 [Compound 422a] : 9.77

Value of measured pEC50 for the entry Fc1cc(Cl)ccc1COc1nc(N2CCN(Cc3nc4cc(-c5nnc(C(F)(F)F)[nH]5)ncc4n3C[C@@H]3CCO3)CC2)ncc1F [Compound 490a] : 10.07

Value of measured pEC50 for the entry CC1(c2ccc(Cl)cc2)Oc2cccc(C3CCN(Cc4nc5cc(-c6nnc(C(F)(F)F)[nH]6)ncc5n4C[C@@H]4CCO4)CC3)c2O1 (stereo partly drawn) [Compound 361a] : 10.47

Value of measured pEC50 for the entry O=C(O)COc1ccc2c(c1)nc(CN1CCC(c3cccc(OCc4ccc(Cl)cc4F)n3)CC1)n2C[C@@H]1CCO1 [Compound 109a] : 7.88

Value of measured pEC50 for the entry Fc1cc(Cl)ccc1COc1cccc(C2CCN(Cc3nc4cc(-c5ccn(C6CCCOC6)n5)ccc4n3C[C@@H]3CCO3)CC2)n1 (stereo partly drawn) [Compound 216a] : 8.06

Value of measured pEC50 for the entry CC(=O)Nc1ccc2c(c1)nc(CN1CCC(c3cccc4c3OC(C)(c3ccc(Cl)cc3F)O4)CC1)n2C[C@@H]1CCO1 (stereo partly drawn) [Compound 240a] : 8.96

Value of measured pEC50 for the entry CO[C@H](C)Cn1c(CN2CCC(c3cccc4c3O[C@@](C)(c3ccc(Cl)cc3F)O4)CC2)nc2cc(-c3noc(=O)[nH]3)cnc21 [Compound 397a] : 8.89

// below: pEC50 requested for another compound
Value of measured pEC50 for the entry O=C(Nc1ccc2c(c1)nc(CN1CCC(c3cccc(OCc4ccc(Cl)cc4F)n3)CC1)n2C[C@@H]1CCO1)N1CCC(F)(F)C1 [Compound 205a] : 8.55
